# ASSAY_EXPLANATION: Solubility of Form I in organic solvents by HPLC (Example 4)
# Assay type: physicochemical
# PROTOCOL_CONDITIONS: 22 °C, organic solvent or mixture, thermodynamic from solid, THF
MEASURED_QUANTITY: solubility at 18 h (µg/mL)

MOLECULE	MEASURED_QUANTITY	MEASUREMENT
COc1cc2c(cc1OC)[C@H]1C[C@@H](OC(=O)[C@@H](N)C(C)C)[C@H](CC(C)C)CN1CC2.Cc1ccc(S(=O)(=O)O)cc1.Cc1ccc(S(=O)(=O)O)cc1 [Form I]	solubility at 18 h	50

###

# ASSAY_EXPLANATION: Solubility of Form I in aqueous media by HPLC (Example 4)
# Type: physicochemical
# PROTOCOL_CONDITIONS: aqueous media, simulated gastric fluid, thermodynamic from solid; Aqueous pH 1.2; 1 hr; 22° C.

COMPOUND	solubility at 1 h / mg/mL
COc1cc2c(cc1OC)[C@H]1C[C@@H](OC(=O)[C@@H](N)C(C)C)[C@H](CC(C)C)CN1CC2.Cc1ccc(S(=O)(=O)O)cc1.Cc1ccc(S(=O)(=O)O)cc1 [Form I]	31.6

###

# ASSAY_EXPLANATION: Solubility of Form I in organic solvents by HPLC (Example 4)
# Assay type: physicochemical
# PROTOCOL_CONDITIONS: 22 °C, organic solvent or mixture, thermodynamic from solid, Methanol
MEASURED_QUANTITY: solubility at 18 h (mg/mL)

MOLECULE	MEASUREMENT
COc1cc2c(cc1OC)[C@H]1C[C@@H](OC(=O)[C@@H](N)C(C)C)[C@H](CC(C)C)CN1CC2.Cc1ccc(S(=O)(=O)O)cc1.Cc1ccc(S(=O)(=O)O)cc1 [Form I]	481

###

# ASSAY_EXPLANATION: Thermodynamic aqueous solubility
# Assay type: physicochemical
# PROTOCOL_CONDITIONS: water, 25 °C, pH 5.1, water, thermodynamic from solid, at pH 5.1; read-out: aqueous solubility

COMPOUND	solubility at 24 h
COc1cc2c(cc1OC)[C@H]1C[C@@H](OC(=O)[C@@H](N)C(C)C)[C@H](CC(C)C)CN1CC2.Cc1ccc(S(=O)(=O)O)cc1.Cc1ccc(S(=O)(=O)O)cc1 [Form II]	~18.5 mg/mL

###

# ASSAY_EXPLANATION: Solubility of Formula I Form I in solvents, gravimetric analysis of mother liquors (Example 1)
# Type: physicochemical
# PROTOCOL_CONDITIONS: organic solvent or mixture, thermodynamic from solid; Acetone; 5° C.; read-out: Solubility at 5° C. temperature

COMPOUND	solubility
COc1cc2c(cc1OC)[C@H]1C[C@@H](OC(=O)[C@@H](N)C(C)C)[C@H](CC(C)C)CN1CC2.Cc1ccc(S(=O)(=O)O)cc1.Cc1ccc(S(=O)(=O)O)cc1 [Form I]	5 mg/mL

###

# ASSAY_EXPLANATION: Solubility of Form I in organic solvents by HPLC (Example 4)
# Type: physicochemical
# PROTOCOL_CONDITIONS: 22 °C, organic solvent or mixture, thermodynamic from solid, Diethyl ether
MEASURED_QUANTITY: solubility at 18 h (µg/mL)

MOLECULE	MEASUREMENT
COc1cc2c(cc1OC)[C@H]1C[C@@H](OC(=O)[C@@H](N)C(C)C)[C@H](CC(C)C)CN1CC2.Cc1ccc(S(=O)(=O)O)cc1.Cc1ccc(S(=O)(=O)O)cc1 [Form I]	10
